tested on: PXR:RXRa (NR concentration 270 nM, RXRa partner concentration 90 nM); assay: PBM binding z-score (relative to random genomic background probes); higher = stronger binding; sequences stand for … in GC…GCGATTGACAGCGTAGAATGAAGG
Given measured PBM binding z-score, output yes (1) if it is greater than or equal to 0.3 and no (0) if not.

Determine whether this sequence has PBM binding z-score no lower than 0.3: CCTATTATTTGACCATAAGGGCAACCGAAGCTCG
yes (1)

Hello, I need to know if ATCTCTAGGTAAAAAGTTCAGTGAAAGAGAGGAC has measured PBM binding z-score not below 0.3. Thanks!
yes (1)

Tell me whether PBM binding z-score is at least 0.3 here: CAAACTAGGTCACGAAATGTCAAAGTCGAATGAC
yes (1)

# check: PBM binding z-score of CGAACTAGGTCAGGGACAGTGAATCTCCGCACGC is greater than or equal to 0.3
yes (1)

Can CCTCGGTGGACAACAGGAGGTCAGAGCTGCCAGA be said to have PBM binding z-score at or above 0.3?
yes (1)

Textbook exercise: given the entry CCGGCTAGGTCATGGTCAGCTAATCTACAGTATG , state whether its PBM binding z-score is greater than or equal to 0.3.
yes (1)

Has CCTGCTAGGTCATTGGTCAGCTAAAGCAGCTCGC a recorded PBM binding z-score greater than or equal to 0.3?
yes (1)

Decide: is the reported value of PBM binding z-score for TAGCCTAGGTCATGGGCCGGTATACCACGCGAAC equal to or greater than 0.3?
yes (1)

Is reported PBM binding z-score greater than or equal to 0.3 here: TAGCCTAGGTCAGAGCGGGCCAGTATACGCTATA
yes (1)

Threshold query (PBM binding z-score >= 0.3) on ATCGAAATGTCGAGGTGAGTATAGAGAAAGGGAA
no (0)

Is the recorded value of PBM binding z-score equal to or greater than 0.3 for this sequence? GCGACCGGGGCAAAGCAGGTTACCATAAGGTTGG
yes (1)

Textbook exercise: given the entry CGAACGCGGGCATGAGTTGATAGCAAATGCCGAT , state whether its PBM binding z-score is greater than or equal to 0.3.
no (0)

# check: PBM binding z-score of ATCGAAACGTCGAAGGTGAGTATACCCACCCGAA is greater than or equal to 0.3
no (0)

Please indicate if the recorded PBM binding z-score for ATCTCTAGGTAAGACTAAGTTCAGTGAAGAACGC meets or exceeds 0.3.
yes (1)

Is PBM binding z-score at least 0.3? Consider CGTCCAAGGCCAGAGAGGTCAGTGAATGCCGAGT
yes (1)

Hi team, for ATCACTAGGTAACCAAGTTCAGTGAATGCCGAAC , is the recorded PBM binding z-score at or above 0.3?
yes (1)

Form field: PBM binding z-score at least 0.3? Entry: CCAGACAGGTGAGAAGGTAGCTCAGCCTCGATTA
no (0)

Given the entry TCTAGTTGGTCAAACGTCACACACTCGAAATGCG , answer whether its PBM binding z-score meets or surpasses 0.3.
yes (1)

Please tell me: is the sequence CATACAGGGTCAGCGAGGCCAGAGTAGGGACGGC at or over 0.3 in terms of PBM binding z-score?
yes (1)

Item TCTTGTAGCTCAGCAGGTTAAGAAAGCTGGCCAA with PBM binding z-score of 0.3 or above?
no (0)

Textbook exercise: given the entry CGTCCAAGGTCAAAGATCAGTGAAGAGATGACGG , state whether its PBM binding z-score is greater than or equal to 0.3.
yes (1)

Is it the case that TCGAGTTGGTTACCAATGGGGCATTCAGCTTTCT has PBM binding z-score reaching or exceeding 0.3?
no (0)

Hello, I need to know if ATATGTAGGTTACATCCGGGTCATTCATGCTATG has measured PBM binding z-score not below 0.3. Thanks!
yes (1)

Answer whether PBM binding z-score of AATACAGAGTCACTAGGCCAGAGTAGGTACGAAT is greater than or equal to 0.3.
no (0)

API: above_or_equal(metric=PBM binding z-score, cutoff=0.3) for item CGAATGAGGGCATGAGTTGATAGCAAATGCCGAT
yes (1)

----------
test system: PPARg:RXRa 90nM:30nM, anti-RXR (NR concentration 90 nM, RXRa partner concentration 30 nM); test: PBM binding z-score (relative to random genomic background probes); higher = stronger binding; sequences stand for … in GC…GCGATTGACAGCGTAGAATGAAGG
Quick rule: PBM binding z-score of at least 7 means MET, below that means NOT MET.

Tell me whether PBM binding z-score is at least 7 here: GCATATAGGTAATAGAAGGTGAAAGTCCGATTGT
NOT MET

Is PBM binding z-score for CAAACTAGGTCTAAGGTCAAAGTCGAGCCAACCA at or above 7?
MET

I'd appreciate it if you could say whether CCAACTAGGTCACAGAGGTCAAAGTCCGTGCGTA has PBM binding z-score at least equal to 7.
MET

Could you tell me if the measured PBM binding z-score of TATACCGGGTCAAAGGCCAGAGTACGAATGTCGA reaches 7 or more?
MET

Is PBM binding z-score at least 7? Consider CCTTACGTGTCACGAGGTTATAGCACGACGAGCG
NOT MET

Form field: PBM binding z-score at least 7? Entry: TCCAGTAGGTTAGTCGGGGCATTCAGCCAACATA
NOT MET

----------
tested on: PPARg DBDmut:RXRa IVT, anti-PPARg (DBD mutation: PPARg1 K132A/R137A, NR concentration 270 nM, RXRa partner concentration 90 nM); experiment: PBM binding z-score (relative to random genomic background probes); higher = stronger binding; sequences stand for … in GC…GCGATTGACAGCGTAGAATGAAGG
Please mark True if the recorded PBM binding z-score is equal to or greater than 0.8, and False if it falls below.

Is PBM binding z-score for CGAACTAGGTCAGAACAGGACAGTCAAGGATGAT at or above 0.8?
True

Can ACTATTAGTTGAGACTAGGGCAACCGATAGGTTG be said to have PBM binding z-score at or above 0.8?
False

Please tell me: is the sequence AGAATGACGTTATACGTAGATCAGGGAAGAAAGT at or over 0.8 in terms of PBM binding z-score?
False

Say whether CTCGAAAGGTCGTGCTGAGGTGAGTATACCAAAC shows PBM binding z-score of 0.8 or more.
False

Exam item: decide whether the reported PBM binding z-score for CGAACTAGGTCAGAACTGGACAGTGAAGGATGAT is at least 0.8.
True

----------
test system: PPARg:RXRa IVT, anti-PPARg (NR concentration 270 nM, RXRa partner concentration 90 nM); assay: PBM binding z-score (relative to random genomic background probes); higher = stronger binding; sequences stand for … in GC…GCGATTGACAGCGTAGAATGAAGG
Quantity Kind: PBM binding z-score

Fill in reported PBM binding z-score for this entry: CGTCCAAGGTGAGCAGGTCAGTGAAAGCGACGTG
2.14

// Input: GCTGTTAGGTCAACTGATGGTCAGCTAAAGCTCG . Output its PBM binding z-score only.
2.94

Note down PBM binding z-score recorded for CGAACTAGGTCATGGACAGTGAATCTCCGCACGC
8.2

Please list PBM binding z-score recorded for the sequence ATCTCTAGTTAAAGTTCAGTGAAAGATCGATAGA
0.671

Provide only the value of recorded PBM binding z-score for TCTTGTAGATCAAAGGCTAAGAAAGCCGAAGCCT
1.23

Give the measured PBM binding z-score for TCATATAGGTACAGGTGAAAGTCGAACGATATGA
1.83

Look up and state reported PBM binding z-score for CCAGACAGGTGAGCAGGTAACTCAGCCTCGATTA
0.619

Consider the sequence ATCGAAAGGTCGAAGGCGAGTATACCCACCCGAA and give its recorded PBM binding z-score.
1.19

Item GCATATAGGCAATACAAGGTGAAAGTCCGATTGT : provide PBM binding z-score
1.46

Consider the sequence GCATATAGGTGATACAAGGTGAAAGTCCGATTGT and give its recorded PBM binding z-score.
4.28

Give the measured PBM binding z-score for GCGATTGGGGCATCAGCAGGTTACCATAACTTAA
0.996

Answer with the recorded PBM binding z-score for the sequence listed here: CCTGCTAGGTCATGGTCCGCTAATCTACAGTATG
3.6

Please indicate PBM binding z-score recorded for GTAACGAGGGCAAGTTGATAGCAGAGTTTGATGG
3.09

Give recorded PBM binding z-score. GCTAGCAGGCCATTTTGGTCACTCAATGACGGGC
-0.122

Indicate the recorded PBM binding z-score value for this sequence: CCTATTAGTTGACCATTAGGGCAACCGAAGCTCG
1.3

Look up and state reported PBM binding z-score for ACTATTAGTTGTGACGAGGGCAACCGATAGGTTG
0.518

Quickly give me recorded PBM binding z-score for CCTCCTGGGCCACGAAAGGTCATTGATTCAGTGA
2.2

Using the record for ATCTCTAGGTAAAGAAAGTTCAGTGAATGCAAAT , state its measured PBM binding z-score.
1.69

Please report PBM binding z-score for the following sequence: TTACCAAGGTGAATGTCGTTGATCCCTCTGTAGA
2.48

Identify PBM binding z-score associated with the sequence TATTGTAGATCAGCAGGTTAAGAAAGCTGGCCAA
0.909

Please supply the value of reported PBM binding z-score for the item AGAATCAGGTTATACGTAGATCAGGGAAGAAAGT
2.1

Please report the measured PBM binding z-score for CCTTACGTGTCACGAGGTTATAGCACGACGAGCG
2.16

Could you please provide reported PBM binding z-score for CGTAGTTGGTCAAGGTCACACACGCTATAGGTAC ? Thanks!
3.93

Note PBM binding z-score for the sequence shown: AGAACGAGGGCACGCTGAGTTGATAGAAGAGTAG
3.46

For the sequence CCTAGTAGGTCAAGGTCACACACGCTATAGGTAC , give its reported PBM binding z-score.
7.96

Let me know recorded PBM binding z-score for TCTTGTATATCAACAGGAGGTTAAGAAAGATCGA , thanks.
0.652
